- tested.system: T1, soluble KDR Ig4-7 domain (human, UniProt P35968 328-764)
- T1 construct: domain: Ig4-7 domain; also called b-KDRIg4-7-myc-his; Ig4-7 domain of KDR; not shown: myc-his tag of the pSecTag construct
- T1 sequence (P35968 328-764): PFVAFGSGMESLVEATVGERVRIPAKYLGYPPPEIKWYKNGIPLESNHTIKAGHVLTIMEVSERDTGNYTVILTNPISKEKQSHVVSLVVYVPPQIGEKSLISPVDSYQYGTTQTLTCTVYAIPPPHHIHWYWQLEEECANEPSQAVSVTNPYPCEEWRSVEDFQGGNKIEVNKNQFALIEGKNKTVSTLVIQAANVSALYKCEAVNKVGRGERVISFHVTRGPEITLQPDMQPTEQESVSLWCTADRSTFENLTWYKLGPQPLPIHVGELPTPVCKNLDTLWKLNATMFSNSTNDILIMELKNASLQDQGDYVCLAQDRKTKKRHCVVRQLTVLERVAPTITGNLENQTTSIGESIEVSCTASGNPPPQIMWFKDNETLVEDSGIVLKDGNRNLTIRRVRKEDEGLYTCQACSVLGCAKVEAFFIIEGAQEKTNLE
- measurement.description: ELISA, KDR Ig4-7 coat (1:1 diln.), antibody 0.01 ug/mL
Quick reference for ELISA reading among some binders

Lookup: For 33B1 (antibody, V domains shown, Fully human monoclonal antibody from a XenoMouse hybridoma (IgG2 or IgG4 strain), purified) VH: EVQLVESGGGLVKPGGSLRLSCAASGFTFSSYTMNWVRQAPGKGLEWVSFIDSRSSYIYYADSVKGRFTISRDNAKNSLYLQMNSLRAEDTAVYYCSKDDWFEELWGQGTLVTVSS VL: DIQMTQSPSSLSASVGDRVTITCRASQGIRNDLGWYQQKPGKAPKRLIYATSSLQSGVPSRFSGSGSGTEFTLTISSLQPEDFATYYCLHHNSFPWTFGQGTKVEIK , what is its reported ELISA reading?
Found: 0.609

Lookup: Given the entry 24B3 (antibody, V domains shown, Fully human monoclonal antibody from a XenoMouse hybridoma (IgG2 or IgG4 strain), purified) VH: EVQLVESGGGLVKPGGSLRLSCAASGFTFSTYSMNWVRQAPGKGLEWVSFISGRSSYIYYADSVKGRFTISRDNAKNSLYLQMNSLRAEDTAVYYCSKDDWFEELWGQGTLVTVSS VL: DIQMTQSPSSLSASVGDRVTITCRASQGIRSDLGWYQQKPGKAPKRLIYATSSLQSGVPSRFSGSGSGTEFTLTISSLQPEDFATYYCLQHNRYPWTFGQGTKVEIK , report its measured ELISA reading.
Found: 1.45

Lookup: Would you mind telling me what ELISA reading value was observed for 32F4 (antibody, V domains shown, Fully human monoclonal antibody from a XenoMouse hybridoma (IgG2 or IgG4 strain), purified) VH: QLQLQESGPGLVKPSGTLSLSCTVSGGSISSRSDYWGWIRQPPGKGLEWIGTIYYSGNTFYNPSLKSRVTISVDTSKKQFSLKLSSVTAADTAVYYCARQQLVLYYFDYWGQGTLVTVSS VL: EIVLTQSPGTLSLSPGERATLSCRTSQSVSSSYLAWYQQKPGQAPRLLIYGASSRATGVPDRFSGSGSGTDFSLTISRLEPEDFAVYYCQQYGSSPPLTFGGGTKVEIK ?
Found: 0.076
